- EXPERIMENT_DESCRIPTION: folding stability dG unfold (combined trypsin and chymotrypsin); higher = more stable
Could you please report measured folding stability dG unfold for the items listed next?
Give bare numbers, in kcal/mol.

CHAIN_SEQUENCE	folding stability dG unfold, kcal/mol
SAGKKVRIWIVFDGDPEQAKYLAEEIAKELRQKDGHKNVDIEVIPPGQDMHQMMEWAEENNVDIVIMVSAGG [r19_89_TrROS]	3.59
SGLKDVISVTVTQSPTAGEVPVVTAYSPDGSRTFNLAPEETEAFLKALREAGYNVVVTDRVFVPVPAELGSA [r9_607_JUSTAS]	1.56
SAGGGREIKVEFEIPHPNGNQMRITVTIYRSPGGIRIKIPVSYTDPEYRDYMREWAEYLARRIAKELSAGGS [r8_416_TrROS]	3.46
SAGGSAGGSAGKPKKPKLVKVKITLPNGEKKEIITEDVEEVIKEINEEFGAIKIEVEEIKSAGGSAGGSAGG [r17_508_TrMRF]	2.76

Now look at this one.
q: # query: folding stability dG unfold of entry SAGGPGAEIWFIKIPIEIEMKMKRKRENDPDGNPRPEWEMEMKIEIPIEIYPIRVRLDPDGKIKSIEFSAGG [r13_148_TrROS]
a: 3.67

----------
- EXPERIMENT_DESCRIPTION: folding stability dG unfold (combined trypsin and chymotrypsin); higher = more stable
# folding stability dG unfold binned as 0 (below 0.7 kcal/mol), 1 (0.7 kcal/mol to below 2 kcal/mol), 2 (2 kcal/mol or more)

CHAIN_SEQUENCE	ASSIGNED_CLASS
SAGGSGMVITIPVELPTPRTLTFTFYPETGTATVEVSPGVPAAEVRATVEEVFAAHGLKLNPITLLSAGGSA [r2_497_JUSTAS]	1
SAGKPRPIINIEWQPNPDGQPNLTISVMRRDPKNGDMKPREYTIDPGADPEDLIKKALDEGADYVSIHPSAG [r5_37_TrROS]	0
SAGGSAGGSAGGSENEPIPIQVKIWDPKDGEPVRTIPFNIWPGRSINELANKFPGVEIVSAGGSAGGSAGGS [r4_187_TrROS]	0
SAGGSAGGSAGPMYKLKAELNNKPFEVMINPDMPPDDQIYIRDPGEWIEFNIENMKVEPVSAGGSAGGSAGG [r11_247_TrROS]	0
SAGGMVLVSTPSNRGASSEILKEAAEAISAGDPDKAAELAREYFQKNFPPDEPIKIEIFVDPPVEPESAGGS [r8_48_TrMRF]	0

q: Looking at SAMIVKDLKTKEEIKKVLEEIAKKLGYPNVTPEEAEEILKKIGVKILSIEKNPKNPEKYIIKIKIEKPKSAG [r14_678_JUSTAS] , which class would you pick?
a: 2

q: Band for SAGGSAGGSKTITVRVKITLPNGETIEVEAEITVRPDGSITITLPDGSTITLPPGAKVEIEPVSAGGSAGGS [r20_227_TrROS_Hall] ?
a: 2

q: Where would SAGGSAGGSAGGPVRLLVLEVPVENVEEVVRRLEALGSVRPVRVERLPGDRYRVLVVSPLSAGGSAGGSAGG [r7_589_TrMRF] land among the classes by reported folding stability dG unfold?
a: 1

q: Entry SAGGSAGGSAGGQLKLKLKVKVTTRVRDPATGKTYTVTEEVEVTVELEFPPPPLPPGFKSAGGSAGGSAGGS [r10_1026_TrROS_Hall] belongs to which category?
a: 2

q: Kindly state the category for this sequence: SAGGSAKPDLVRTGPLLLPTAVVLPSVHFADPDVSVSLFRTPNGPPYLALAFIDPETGEPHIVLFPSAGGSA [r15_84_TrMRF]
a: 1

q: Hello team, could you let me know which band the following sequence falls into: SAGGSAGGSAGMKDNLVVTRTYTLPDDTVLVTRATFDSNPELVTVDVTEVPLSDVAPDAVSAGGSAGGSAGG [r11_493_TrMRF]
a: 0

q: Entry SEPVPVKIEISTSVDSNGNPSVTITVYNEEKVYTNPLNGATILSVDPNKQYIVIENPALGTKLTLSYTLISA [r9_1186_JUSTAS] belongs to which category?
a: 2

q: Band of SAGGSAGGSAMPKTTVYTIPYESDEEAEARIEEIKAEARARNPEAKVTVTPAGESVNVTIVGSAGGSAGGSA [r18_469_JUSTAS] ?
a: 0

q: Which folding stability dG unfold category applies to SAGMEKVKLTFKTEDGSEVEIEIVKNEDGSYFVKVKVDKENQEIYVFNADGELIEKIKVKSLEDALKALSAG [r5_757_TrROS_Hall] here?
a: 2

q: Input SATTTLNLSSVEELKELVEKLIAEGNPEATLTVTLYPPSGESSTKSFSSVEEVIEELKKGPASVTITVTSSA [r9_589_JUSTAS] ; output its category
a: 2

q: Band for SMTYTVTKESSVSPLPDGSPVTSTTTTVTAPTEPVTVTTSTSVTPLSTGTSTTTSTTTTTVPPDDPLAASSA [r9_34_JUSTAS] ?
a: 0

q: Determine which band this sequence sits in: SAGGMVKVLKVETYPGTGEVIVTMELPGNTVATVRIPRAPDAPLTVSPDGVVTVPTAPVTELETTAPSAGGS [r16_515_JUSTAS]
a: 0

q: Bin? SAGGGVSTSTDPNSDTTTTTVPLPNSDSTATSTHNPSTGTSTTTVPTNNTTTTYSPGGTTTATTTLPTSAGG [r13_101_JUSTAS]
a: 0

q: Category of SAGGSAGGSAGGSPPSLDYSVRTITTTVEETTFFPDNGTVRSRPVHVTTVVFEPLDSVESAGGSAGGSAGGS [r10_133_JUSTAS] :
a: 0

q: Any idea which band SAGGSAATTVAVNGKEITIVSVDPATGKVTIAVPENVPESVIQAAKDLLEAQGLPVEVKRVPPEKLSAGGSA [r15_570_JUSTAS] is in?
a: 1

----------
- EXPERIMENT_DESCRIPTION: folding stability dG unfold from chymotrypsin proteolysis; higher = more stable
Lab note: compare folding stability dG unfold against 0.3 kcal/mol. Equal or greater, write 1. Smaller, write -1.

Solved cases below.
CHAIN_SEQUENCE	ASSIGNED_CLASS
SAGGSAGGSAGGSKKKKKKPKKVLLVRNKKTKKLYVFKTKEEAKKAGFEIVKDGKIKKKSAGGSAGGSAGGS [r4_306_TrROS_Hall]	-1
SAGGSAGGDEVKIEVEVKKVKVKVRVRVKNEDGEEKEVEKEFEVEVVKVKIEFKSPEEAKKLGLSAGGSAGG [r6_149_TrROS_Hall]	-1
SAGGSAGGKIKLDGKEIVIVMSKEEKEKIAKELKEKFPNVKIKVVEGMSEEEAAKKADLVIVFDSAGGSAGG [r6_679_TrROS_Hall]	-1
SAGGSAGGSAGWYFPIDELQKEHPNMSPETIADFFQKDGYKIEVEPVGPEPWVKIEPPEKSAGGSAGGSAGG [r11_707_TrROS]	-1

q: Kindly determine if folding stability dG unfold recorded for SAGGSAGMNSEITLTIPVPHPRDEEGRVLPLSPEAIEKELKEKGYNVKIKEVKTSPSTITVTLKIISAGGSA [r15_225_JUSTAS] is above or exactly 0.3 kcal/mol.
a: 1

q: Please check the record SAGGMVEVKPFEIKPPGSSITVTLTDPQGNVIGSTTVSVPTGRLELTITVEPDKTVKVTLTELPPSEVSAGG [r13_935_JUSTAS] and state if its folding stability dG unfold is at or above 0.3 kcal/mol.
a: -1

q: Identify whether the reported folding stability dG unfold of the following sequence is 0.3 kcal/mol or greater: SAGGYVTSPMSPEIEAKAKEAGKTIDEAKELVIPVNDGGKFRTVKVTFYPETGTVAFYYEDTGEWSNLLSAG [r5_545_JUSTAS]
a: 1

----------
- EXPERIMENT_DESCRIPTION: folding stability dG unfold from trypsin proteolysis; higher = more stable
I'd appreciate it if you could supply folding stability dG unfold values for the items below.
Numbers only, in kcal/mol.

CHAIN_SEQUENCE	folding stability dG unfold, kcal/mol
SAGGAPVTVREEELPENSKLITIEYPDGLTLEVLEYPDKVLVREWDTATGKELSSRTLTHEELEKLLSAGGS [r8_476_JUSTAS]	1.81
SAAAENGEITISVEVELDPETNTLTIKRVEITVNGKLIATATLTITLPPPPPEPEETVYVHPDDPEALKSAG [r14_571_TrROS_Hall]	1.54
SAGGSAGGSAGGLEIELPNARIRIEELEGEPRRIRVRVEFFPPDGGRLSAEAEFDILPDLSAGGSAGGSAGG [r17_184_TrMRF]	2.66
SIITINFHPGMFHISIYKDGGEKTIPMPWSEIKELLKKGVDKVEIHSPDPGFMNEFQKLVQKEGIPIEIHSA [r9_810_TrROS]	1.42
SAGGSAGGSSVEYTFLSKNPEEAKKKFEEKIKEIEEKGEGKIEKAEFTIVSPDNPEYLKLISSSAGGSAGGS [r12_551_JUSTAS]	0.213
SAGGDKKWTAEFDVRKRDDTVEVTLTFTDPNGNETTETYTLTDDELAKLLAELPPEFKNVTRNEVLESAGGS [r16_298_JUSTAS]	1.57
SAGGSAPPASAPGVVEEVEAEVPVDVPEVARLTGRPPRPGERYRVRVVRRVYPDGRVETDVYIEPGSAGGSA [r15_91_TrMRF]	0.328
SELVEKAAEKGVKEIHIYLSEEQREAILKAADAGVKITIHLPEGATVEELKALPGIKVDKVEVFSPEELKSA [r9_671_TrROS_Hall]	0.273

Your task in this section: give folding stability dG unfold for each listed record.
1. SAGGSAGGSAGGSSSSSITTEERPVDEDSVEKTFKFPDYYVVETLDPRTGRTSVSFIPVSAGGSAGGSAGGS [r4_99_JUSTAS]
2. SAGGSAGGSAGEPIKGIIRVYNPETGEVTDIELEFKTLEEALAFAASLPPTVARVEIVFASAGGSAGGSAGG [r11_25_TrMRF]
3. SAGGMANPEDFKVVESLEFRDPDNGKPFTIEIAKPPDNNVPIMIWHNGSMYMFVIDGDKIEVFPIKNSAGGS [r16_711_TrROS]
4. SAGGMVKVLKVETYPGTGEVIVTMELPGNTVATVRIPRAPDAPLTVSPDGVVTVPTAPVTELETTAPSAGGS [r16_515_JUSTAS]
5. SAGGKITIEVTYNKETGEITIRITFNGKTIEIKIKVPGLSEEEVKKLAEELAKKLKEKYGIDKVEITSAGGS [r16_249_TrROS_Hall]
6. SAGGSAGGSDMVLVTAPVDIPPNVKVEIKLKDGYETVSYDPESGRLVILVPANKLDEVLEAIKSAGGSAGGS [r12_476_TrMRF]

a:
[0.756, 1.6, 1.5, -0.276, 4.36, 0.996]
